test system: Cell membrane; experiment: Induction of outer membrane permeabilization in Pseudomonas aeruginosa PAO1 assessed as increase in NPN uptake at 8 to 32 uM by NPN-dye based fluorescence analysis; details: dose 8-32 µM
Active and inactive are the calls of the source. The rule behind the calls is not given here. Residues, ends and D or L forms follow the SMILES beside them. *: point of attachment. βGal = OC[C@H]1O[C@@H](*)[C@H](O)[C@@H](O)[C@H]1O; Palmitoyl = CCCCCCCCCCCCCCCC(=O)*; Lauroyl = CCCCCCCCCCCC(=O)*; Octanoyl = CCCCCCCC(=O)*
result type: Activity

CCCCCCCCCCCC(=O)NCC(=O)N[C@H](C(=O)N[C@H](C(=O)N[C@@H](CCCCN)C(=O)N[C@@H](CCCCN)C(=O)N[C@H](C(=O)N[C@H](C(=O)N[C@@H](CCCCN)C(=O)N[C@@H](CCCCN)C(=O)N[C@H](C(=O)N[C@H](C(=O)N[C@@H](CCCCN)C(=O)N[C@@H](CCCCN)C(=O)N[C@H](C(N)=O)[C@@H](C)CC)[C@@H](C)CC)[C@@H](C)CC)[C@@H](C)CC)[C@@H](C)CC)[C@@H](C)CC)[C@@H](C)CC (Lauroyl-GIIKKIIKKIIKKI-NH2); Active
CCCCCCCC(=O)NCC(=O)N[C@H](C(=O)N[C@H](C(=O)N[C@@H](CCCCN)C(=O)N[C@@H](CCCCN)C(=O)N[C@H](C(=O)N[C@H](C(=O)N[C@@H](CCCCN)C(=O)N[C@@H](CCCCN)C(=O)N[C@H](C(=O)N[C@H](C(=O)N[C@@H](CCCCN)C(=O)N[C@@H](CCCCN)C(=O)N[C@H](C(=O)N[C@@H](CO[C@@H]1O[C@H](CO)[C@H](O)[C@H](O)[C@H]1O)C(N)=O)[C@@H](C)CC)[C@@H](C)CC)[C@@H](C)CC)[C@@H](C)CC)[C@@H](C)CC)[C@@H](C)CC)[C@@H](C)CC (Octanoyl-GIIKKIIKKIIKKIS(βGal)-NH2); Active
CCCCCCCCCCCCCCCC(=O)NCC(=O)N[C@H](C(=O)N[C@H](C(=O)N[C@@H](CCCCN)C(=O)N[C@@H](CCCCN)C(=O)N[C@H](C(=O)N[C@H](C(=O)N[C@@H](CCCCN)C(=O)N[C@@H](CCCCN)C(=O)N[C@H](C(=O)N[C@H](C(=O)N[C@@H](CCCCN)C(=O)N[C@@H](CCCCN)C(=O)N[C@H](C(N)=O)[C@@H](C)CC)[C@@H](C)CC)[C@@H](C)CC)[C@@H](C)CC)[C@@H](C)CC)[C@@H](C)CC)[C@@H](C)CC (Palmitoyl-GIIKKIIKKIIKKI-NH2); Active
